Data credit: patent US9266883B2

Please respond with reported IC50 for every item in the list.
- System: HuH-7 hepatocellular carcinoma cells
- TEST_DESCRIPTION: CellTiter Glo (CTG) Assay
- STATED_CONDITIONS: Homo sapiens, Huh-7, 72 h, read-out: HUH7 proliferation (nM) CTG
Give bare numbers, in nM.

Consider the following illustrative entries.
INSERT INTO assay_data (compound, observed_measurement) VALUES
  ('COCCNc1cc(NC(=O)N2CCCc3cc(CN4CCSCC4=O)c(C=O)nc32)ncc1C#N', 77.5),
  ('COCCNc1cc(NC(=O)N2CCCc3cc(-c4cnc(C)s4)c(C=O)nc32)ncc1C#N', 395),
  ('COCCNc1cc(NC(=O)N2CCCc3cc(CN4C[C@@H](C)N[C@@H](C)C4)c(C=O)nc32)ncc1C#N', 1780),
  ('COCCNc1cc(NC(=O)N2c3nc(C=O)c(CN4CCN(C)CC4=O)cc3CC[C@@H]2C)ncc1C#N', 62),
  ('CN1CCCC(COc2cc(NC(=O)N3CCCc4cc(CO)c(C=O)nc43)ncc2C#N)C1 (racemic)', 502);

Would you kindly look at the next entry?
Req: Quick one: IC50 of N#Cc1cnc(NC(=O)N2CCCc3cc(CO)c(C=O)nc32)cc1NCC1CCCOC1 (racemic) ?
Resp: 202

###

- SYSTEM: Tel-FGFR4 (Homo sapiens (Human))
- Sequence (P22455 other isoform, or with tags, fused parts or gaps): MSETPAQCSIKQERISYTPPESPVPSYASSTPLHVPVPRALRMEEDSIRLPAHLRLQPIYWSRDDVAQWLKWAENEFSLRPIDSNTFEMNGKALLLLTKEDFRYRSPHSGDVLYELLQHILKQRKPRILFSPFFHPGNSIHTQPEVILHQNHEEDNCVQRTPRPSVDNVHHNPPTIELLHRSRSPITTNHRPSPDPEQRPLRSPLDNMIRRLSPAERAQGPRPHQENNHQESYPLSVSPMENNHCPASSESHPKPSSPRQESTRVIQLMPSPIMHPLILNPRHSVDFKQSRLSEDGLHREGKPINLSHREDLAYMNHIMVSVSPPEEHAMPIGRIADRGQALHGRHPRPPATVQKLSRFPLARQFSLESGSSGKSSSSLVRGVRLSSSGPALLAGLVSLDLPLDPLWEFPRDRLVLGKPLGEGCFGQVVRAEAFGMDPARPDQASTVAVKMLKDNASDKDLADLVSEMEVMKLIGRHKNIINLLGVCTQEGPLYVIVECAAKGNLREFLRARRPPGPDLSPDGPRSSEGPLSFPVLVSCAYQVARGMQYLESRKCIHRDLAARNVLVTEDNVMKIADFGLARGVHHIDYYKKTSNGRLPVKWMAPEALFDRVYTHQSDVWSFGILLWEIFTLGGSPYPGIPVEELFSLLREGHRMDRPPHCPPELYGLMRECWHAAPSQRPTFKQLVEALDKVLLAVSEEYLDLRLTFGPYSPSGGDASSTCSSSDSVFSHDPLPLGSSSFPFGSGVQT
- TEST_DESCRIPTION: In vitro cellular kinase assay for FGFR4 (BaF3-Tel-FGFR4 cells, MSD capture ELISA of tyrosine phosphorylation)
- Format: cell-based
- STATED_CONDITIONS: Cellular BaF3 FGFR4 assay; read-out: Cellular IC50
MEASURE_NAME: IC50 (nM)
Answers are plain numbers, in nM.

Consider the following illustrative entries.
INSERT INTO results (molecule_smiles, measure_name, observed_measurement) VALUES
  ('CC(=O)N(C)Cc1cc2c(nc1C=O)N(C(=O)Nc1cc(NCCO)c(C#N)cn1)CCC2', 'IC50', 8.1),
  ('CC(C)Oc1cc(NC(=O)N2CCCc3cc(CN4CCN(C)C(=O)C4)c(C=O)nc32)ncc1C#N', 'IC50', 17),
  ('CCN(Cc1cc2c(nc1C=O)N(C(=O)Nc1cc(NC(C)C)c(C#N)cn1)CCC2)C(=O)CN(C)C', 'IC50', 10.4);

Would you kindly look at the next entry?
Req: Quick one: IC50 of COCCNc1cc(NC(=O)N2CCCc3cc(CN(C)C(=O)CN(C)C)c(C=O)nc32)ncc1C#N ?
Resp: 6.1

###

- Test system: HuH-7 hepatocellular carcinoma cells
- TEST_DESCRIPTION: Methylene Blue Staining Proliferation Assay (MBS)
- STATED_CONDITIONS: Homo sapiens, Huh-7, 72 h, read-out: HUH7 proliferation (nM) MBS
Structures can show the parent of a compound that is named as a salt.
MEASURE_NAME: IC50 (nM)
One number for each entry, in nM.

INSERT INTO measurements (compound, observed_measurement) VALUES
  ('COCCNc1cc(NC(=O)N2CCCc3cc(-c4cnn(C)c4)c(C=O)nc32)ncc1C#N [Example 251]', 264),
  ('CN1CCOC(CNc2cc(NC(=O)N3CCCc4cc(C(F)F)c(C=O)nc43)ncc2C#N)C1 (racemic) [Example 161]', 126),
  ('COCCNc1cc(NC(=O)N2CCCc3cc(CN4CCNCC4=O)c(C=O)nc32)ncc1C#N [Example 110, hydrochloride]', 46);

Record IC50 for all entries; do not skip any.
1. COC[C@@H](C)Oc1cc(NC(=O)N2CCCc3cc(CN4CCN(C)CC4=O)c(C=O)nc32)ncc1C#N [Example 205]
2. COCCNc1cc(NC(=O)N2CCCc3cc(CO)c(C=O)nc32)ncc1C(F)(F)F [Example 84]

Resp:
[14, 929]

Req: Quick one: IC50 of N#Cc1cnc(NC(=O)N2CCCc3cc(CO)c(C=O)nc32)cc1OC1CN2CCC1CC2 (racemic) [Example 82] ?
Resp: 2010
